- measured_on: KIT (human)
- test_name: KINOMEscan competition binding
- applied_conditions: compound 10.0 µM
Please use TRUE for kinase still bound, per cent of control under 0.1% and FALSE for everything else, ties included.

Solved entries:
1) COc1cc(C)c(Sc2cnc(NC(=O)c3ccc(CNC(C)C(C)C)cc3)s2)cc1C(=O)N1CCN(C(C)=O)CC1 (stereo not drawn)
FALSE
2) CCOc1cc(N2CCC(O)CC2)ccc1Nc1ncc2c(n1)N(C)c1ccccc1C(=O)N2C
FALSE
3) N#Cc1cc(-c2ccnc(Nc3ccc(-n4cnc(-c5cccnc5)n4)cc3)n2)cc(N2CCOCC2)c1
FALSE

Input line: Is it true that kinase still bound, per cent of control reported for COc1ccc(N(C(=O)Oc2cc(C(=O)Nc3cccc(C(F)(F)F)c3)ccc2C)c2ccnc(Nc3ccc(N4CCN(C)CC4)cc3)n2)c(OC)c1 is less than 0.1%?
Output line: FALSE

Input line: Same for N#C/C(=C1/Nc2ccccc2S1)c1ccnc(NCCc2cccnc2)n1
Output line: FALSE

Input line: Same for CCN1CCN(Cc2ccc(NC(=O)c3ccc(C)c(/C=C/c4cnc5[nH]ccc5c4OC)c3)cc2C(F)(F)F)CC1
Output line: TRUE

Input line: Same for CCN(CCO)CCCOc1ccc2c(Nc3cc(CC(=O)Nc4cccc(F)c4)[nH]n3)ncnc2c1
Output line: TRUE

* * *

Consider the following molecules and their measured kinase still bound, per cent of control readings.
- measured_on: UniProt P04049
- Sequence (P04049 whole entry, looked up): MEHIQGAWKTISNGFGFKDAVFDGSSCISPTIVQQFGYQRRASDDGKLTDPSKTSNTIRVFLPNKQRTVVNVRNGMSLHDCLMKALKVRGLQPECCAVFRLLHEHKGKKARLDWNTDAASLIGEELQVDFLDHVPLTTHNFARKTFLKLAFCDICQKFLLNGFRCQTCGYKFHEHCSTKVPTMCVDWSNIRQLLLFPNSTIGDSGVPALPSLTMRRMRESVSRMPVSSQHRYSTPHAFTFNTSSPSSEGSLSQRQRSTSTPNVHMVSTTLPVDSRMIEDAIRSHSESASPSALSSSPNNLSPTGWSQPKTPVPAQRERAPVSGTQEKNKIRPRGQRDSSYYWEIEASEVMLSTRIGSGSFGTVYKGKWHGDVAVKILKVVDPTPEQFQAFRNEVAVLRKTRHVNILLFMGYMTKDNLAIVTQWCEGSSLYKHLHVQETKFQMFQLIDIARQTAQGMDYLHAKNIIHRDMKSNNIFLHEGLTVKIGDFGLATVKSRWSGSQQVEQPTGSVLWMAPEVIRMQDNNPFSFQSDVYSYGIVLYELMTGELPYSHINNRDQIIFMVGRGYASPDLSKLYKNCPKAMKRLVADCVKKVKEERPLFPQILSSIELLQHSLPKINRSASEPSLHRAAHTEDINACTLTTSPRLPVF
- test_name: KINOMEscan competition binding
- applied_conditions: compound 10.0 µM
Kindly answer with a numeric value in %, unit omitted.

1) CCc1nc(-c2cccc(C)c2)c(-c2ccnc(NC(=O)c3ccccc3)c2)s1
34
2) CNC(=O)Nc1ccc(-c2nc(N3CC4CCC(C3)O4)c3cnn(C4CCC5(CC4)OCCO5)c3n2)cc1
100
3) Cc1cn(-c2cc(C(=O)Nc3ccc(C)c(NC(=O)c4ccno4)c3)cc(C(F)(F)F)c2)cn1
6

Now let's try a different one.
Input line: # get_value(readout= kinase still bound, per cent of control, system= UniProt P04049) for O=c1[nH]c2ccccc2n1C1CCN(Cc2ccc(-c3nc4cc5[nH]cnc5cc4nc3-c3ccccc3)cc2)CC1
Output line: 99

* * *

- measured_on: SRPK2 (human)
- test_name: KINOMEscan competition binding
- applied_conditions: compound 10.0 µM
property_label: kinase still bound, per cent of control (%)
Kindly answer with a numeric value in %, unit omitted.

1) CCc1nc(-c2cccc(C)c2)c(-c2ccnc(NC(=O)c3ccccc3)c2)s1
73
2) COc1cc2c(Nc3ccc(NC(=O)c4ccccc4)cc3)ncnc2cc1OCCCN1CCOCC1
86
3) CCOc1cc(N2CCC(O)CC2)ccc1Nc1ncc2c(n1)N(C)c1ccccc1C(=O)N2C
100
4) O=c1[nH]c2ccccc2n1C1CCN(Cc2ccc(-c3nc4cc5[nH]cnc5cc4nc3-c3ccccc3)cc2)CC1
85
5) CC(=O)c1c(C)c2cnc(Nc3ccc(N4CCNCC4)cn3)nc2n(C2CCCC2)c1=O
68
6) COc1ccc(N(C(=O)Oc2cc(C(=O)Nc3cccc(C(F)(F)F)c3)ccc2C)c2ccnc(Nc3ccc(N4CCN(C)CC4)cc3)n2)c(OC)c1
100
7) N#C/C(=C1/Nc2ccccc2S1)c1ccnc(NCCc2cccnc2)n1
86
8) CCN(CCO)CCCOc1ccc2c(Nc3cc(CC(=O)Nc4cccc(F)c4)[nH]n3)ncnc2c1
92

Input line: I would be grateful if you could share the reported kinase still bound, per cent of control for CNC(=O)Nc1ccc(-c2nc(N3CC4CCC(C3)O4)c3cnn(C4CCC5(CC4)OCCO5)c3n2)cc1 .
Output line: 90
